The following are reported IC50 results, target or system Dopamine receptor.
MEASURED METRIC: IC50

[[record]]
molecule = "COC(=O)[C@H](c1ccccc1)[C@H]1CCCCN1.Cl (racemic) [DEXMETHYLPHENIDATE HYDROCHLORIDE]"
reported = "164 nM"

[[record]]
molecule = "COC(=O)[C@H](c1ccc(Cl)c(Cl)c1)[C@H]1CCCCN1.Cl (racemic)"
reported = "2.67 nM"

[[record]]
molecule = "COC(=O)[C@H](c1ccc(C)cc1)[C@H]1CCCCN1.Cl (racemic)"
reported = "114 nM"

[[record]]
molecule = "COC(=O)[C@H](c1ccc2ccccc2c1)[C@@H]1CCCCN1.Cl (racemic)"
reported = "2080 nM"

[[record]]
molecule = "COC(=O)[C@H](c1ccc(-c2ccccc2)cc1)[C@@H]1CCCCN1.Cl (racemic)"
reported = "6470 nM"

[[record]]
molecule = "COC(=O)[C@H](c1ccccc1)[C@@H]1CCCCN1.Cl (racemic)"
reported = "> 1000 nM"

[[record]]
molecule = "COC(=O)[C@H](c1ccc(-c2ccccc2)cc1)[C@H]1CCCCN1.Cl (racemic)"
reported = "1020 nM"

[[record]]
molecule = "COC(=O)[C@H](c1ccc2ccccc2c1)[C@H]1CCCCN1.Cl"
reported = "11.1 nM"

[[record]]
molecule = "COC(=O)[C@H](c1ccc(C)cc1)[C@@H]1CCCCN1.Cl (racemic)"
reported = "7430 nM"

[[record]]
molecule = "COC(=O)[C@H](c1ccc(Cl)c(Cl)c1)[C@@H]1CCCCN1.Cl (racemic)"
reported = "33.8 nM"

[[record]]
molecule = "COC(=O)[C@H](c1ccc(Cl)cc1)[C@H]1CCCCN1.Cl (racemic)"
reported = "91.2 nM"


* * *

pIC50: −log10 of the molar value.
The following are reported pIC50 results, target or system Sodium-dependent dopamine transporter (Rattus norvegicus, UniProt P23977).
MEASURED METRIC: pIC50

[[record]]
molecule = "COC(=O)[C@H](c1ccc(Cl)cc1)[C@@H]1CCCN1 (racemic)"
lt_gt_eq = "<"
reported = 6.00

[[record]]
molecule = "COC(=O)[C@H](c1ccc2ccccc2c1)[C@@H]1CCCN1 (racemic)"
lt_gt_eq = "="
reported = 6.09

[[record]]
molecule = "COC(=O)[C@H](c1ccc2cc(C)ccc2c1)[C@@H]1CCCN1 (stereo in doubt)"
lt_gt_eq = "="
reported = 6.07

[[record]]
molecule = "COC(=O)[C@H](c1ccccc1)[C@@H]1CCCN1 (racemic)"
lt_gt_eq = "<"
reported = 6.00

[[record]]
molecule = "COC(=O)[C@H](c1ccc(Cl)cc1)[C@H]1CCCN1 (racemic)"
lt_gt_eq = "="
reported = 6.57

[[record]]
molecule = "COC(=O)[C@H](c1ccc(Br)cc1)[C@@H]1CCCN1 (racemic)"
lt_gt_eq = "="
reported = 6.20

[[record]]
molecule = "COC(=O)[C@H](c1ccc2cc(C)ccc2c1)[C@@H]1CCCN1 (stereo in doubt; 10i)"
lt_gt_eq = "="
reported = 5.85

[[record]]
molecule = "COC(=O)[C@H](c1ccc2cc(Br)ccc2c1)[C@@H]1CCCN1"
lt_gt_eq = "="
reported = 6.35

[[record]]
molecule = "COC(=O)[C@H](c1ccc2cc(Br)ccc2c1)[C@@H]1CCCN1 (racemic)"
lt_gt_eq = "="
reported = 6.71

[[record]]
molecule = "COC(=O)[C@H](c1ccc(C)cc1)[C@H]1CCCN1 (racemic)"
lt_gt_eq = "="
reported = 5.71

[[record]]
molecule = "COC(=O)[C@H](c1ccc(C)cc1)[C@@H]1CCCN1 (racemic)"
lt_gt_eq = "<"
reported = 6.00

[[record]]
molecule = "COC(=O)[C@H](c1ccc2ccccc2c1)[C@@H]1CCCN1"
lt_gt_eq = "="
reported = 6.33

[[record]]
molecule = "COC(=O)[C@H](c1ccccc1)[C@H]1CCCN1 (racemic)"
lt_gt_eq = "="
reported = 5.50


* * *

The following are reported log10(Ki) results, target or system Sodium-dependent serotonin transporter (Rattus norvegicus).
MEASURED METRIC: log10(Ki) (log10 of the value in nM)

[[record]]
compound = "COC(=O)[C@H](c1ccc(Cl)cc1)[C@@H]1CCCN1 (racemic)"
reported = 3.28

[[record]]
compound = "COC(=O)[C@H](c1ccc2cc(OC)ccc2c1)[C@@H]1CCCN1 (racemic)"
reported = 2.39

[[record]]
compound = "COC(=O)[C@H](c1ccc2ccccc2c1)[C@@H]1CCCN1"
reported = 0.40

[[record]]
compound = "COC(=O)[C@H](c1ccc2cc(OC)ccc2c1)[C@@H]1CCCN1"
reported = 1.74

[[record]]
compound = "COC(=O)[C@H](c1ccc2ccccc2c1)[C@@H]1CCCN1 (racemic)"
reported = 0.60

[[record]]
compound = "COC(=O)[C@@H](c1ccc2ccccc2c1)[C@H]1CCCN1"
reported = 3.31

[[record]]
compound = "COC(=O)[C@H](c1ccc2cc(Br)ccc2c1)[C@@H]1CCCN1 (racemic)"
reported = 1.06

[[record]]
compound = "COC(=O)[C@H](c1ccc2cc(Br)ccc2c1)[C@@H]1CCCN1"
reported = 0.74

[[record]]
compound = "COC(=O)[C@H](c1ccc2cc(C)ccc2c1)[C@@H]1CCCN1 (stereo in doubt)"
reported = 0.36

[[record]]
compound = "COC(=O)[C@H](c1ccc(Cl)cc1)[C@H]1CCCN1 (racemic)"
reported = 3.03

[[record]]
compound = "COC(=O)[C@H](c1ccc2cc(C)ccc2c1)[C@@H]1CCCN1 (stereo in doubt; 10i)"
reported = 0.51


* * *

TARGET OR TEST SYSTEM: Sodium-dependent dopamine transporter (Rattus norvegicus)
Sequence (P23977 whole entry): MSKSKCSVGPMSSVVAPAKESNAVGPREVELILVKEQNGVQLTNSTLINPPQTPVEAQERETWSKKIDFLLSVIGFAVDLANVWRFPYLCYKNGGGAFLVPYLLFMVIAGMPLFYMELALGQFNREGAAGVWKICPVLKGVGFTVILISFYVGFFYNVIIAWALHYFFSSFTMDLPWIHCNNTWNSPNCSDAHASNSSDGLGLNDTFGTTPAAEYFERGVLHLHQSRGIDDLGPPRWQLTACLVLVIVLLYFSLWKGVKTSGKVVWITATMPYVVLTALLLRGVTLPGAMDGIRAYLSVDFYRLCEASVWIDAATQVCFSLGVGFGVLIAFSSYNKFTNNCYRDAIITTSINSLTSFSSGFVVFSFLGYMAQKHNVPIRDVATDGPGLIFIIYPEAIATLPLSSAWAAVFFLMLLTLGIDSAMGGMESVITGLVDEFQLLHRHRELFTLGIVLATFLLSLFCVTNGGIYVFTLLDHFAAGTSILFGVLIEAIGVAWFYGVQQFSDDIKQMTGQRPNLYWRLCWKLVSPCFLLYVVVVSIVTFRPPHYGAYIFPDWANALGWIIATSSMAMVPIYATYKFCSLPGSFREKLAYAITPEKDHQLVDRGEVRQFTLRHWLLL
METHOD DESCRIPTION: Inhibitory activity against dopamine transporter in rat striatal membranes
Assay type: cell membranes, Striatum, Membrane
pIC50: −log10 of the molar value.
MEASURED METRIC: pIC50

[[record]]
compound = "COC(=O)[C@H](c1ccccc1)[C@H]1CCCN1 (racemic)"
measured_metric = "pIC50"
reported = 5.87


* * *

This listing pairs molecules with measured Ki.
METHOD DESCRIPTION: […]
Format: tissue-based, Frontal cortex
MEASURED METRIC: Ki

[[record]]
molecule = "COC(=O)[C@H](c1ccc(Cl)cc1)[C@H]1CCCCN1.Cl (racemic)"
reported = "2.22 µM"

[[record]]
molecule = "COC(=O)[C@H](c1ccccc1)[C@H]1CCCCN1.Cl (racemic) [DEXMETHYLPHENIDATE HYDROCHLORIDE]"
reported = "> 10 µM"

[[record]]
molecule = "COC(=O)[C@H](c1ccc(-c2ccccc2)cc1)[C@H]1CCCCN1.Cl (racemic)"
reported = "> 10 µM"

[[record]]
molecule = "COC(=O)[C@H](c1ccc(-c2ccccc2)cc1)[C@@H]1CCCCN1.Cl (racemic)"
reported = "> 10 µM"


* * *

This listing pairs compounds with measured IC50.
TARGET OR TEST SYSTEM: Dopamine receptor
METHOD DESCRIPTION: Potency of inhibiting [3H]WIN-35428 binding to […] in rat striatal membranes
Assay type: cell membranes, Membrane
MEASURED METRIC: IC50 (µM)

[[record]]
compound = "COC(=O)[C@H](c1ccccc1)[C@H]1CCCCN1.Cl (racemic) [DEXMETHYLPHENIDATE HYDROCHLORIDE]"
reported = 0.083

[[record]]
compound = "COC(=O)[C@H](c1ccc(C)cc1)[C@H]1CCCCN1.Cl (racemic)"
reported = 0.033

[[record]]
compound = "COC(=O)[C@H](c1ccc(Cl)cc1)[C@H]1CCCCN1.Cl (racemic)"
reported = 0.0206

[[record]]
compound = "COC(=O)[C@H](c1ccc(Cl)c(Cl)c1)[C@H]1CCCCN1.Cl (racemic)"
reported = 0.0053


* * *

METHOD DESCRIPTION: […]
Type: tissue-based, Frontal cortex
This listing pairs molecules with measured Ki.
MEASURED METRIC: Ki

[[record]]
molecule = "COC(=O)[C@H](c1ccc2ccccc2c1)[C@@H]1CCCCN1.Cl (racemic)"
reported = "0.105 µM"

[[record]]
molecule = "COC(=O)[C@H](c1ccc(C)cc1)[C@H]1CCCCN1.Cl (racemic)"
reported = "> 10 µM"

[[record]]
molecule = "COC(=O)[C@H](c1ccc2ccccc2c1)[C@H]1CCCCN1.Cl"
reported = "0.0948 µM"

[[record]]
molecule = "COC(=O)[C@H](c1ccc(Cl)c(Cl)c1)[C@@H]1CCCCN1.Cl (racemic)"
reported = "> 10 µM"

[[record]]
molecule = "COC(=O)[C@H](c1ccc(Cl)c(Cl)c1)[C@H]1CCCCN1.Cl (racemic)"
reported = "> 10 µM"

[[record]]
molecule = "COC(=O)[C@H](c1ccc(C)cc1)[C@@H]1CCCCN1.Cl (racemic)"
reported = "> 10 µM"

[[record]]
molecule = "COC(=O)[C@H](c1ccccc1)[C@@H]1CCCCN1.Cl (racemic)"
reported = "> 10 µM"

[[record]]
molecule = "COC(=O)[C@H](c1ccc(Cl)cc1)[C@@H]1CCCCN1 (racemic)"
reported = "> 10 µM"

[[record]]
molecule = "COC(=O)[C@H](c1ccc2ccccc2c1)[C@H]1CCCCN1 (racemic)"
reported = "0.0716 µM"

